# TESTED_SYSTEM: hMPV B1 F (human metapneumovirus)
# ASSAY_INFO: ELISA on coated recombinant protein, OD 405 nm
READOUT_TYPE: EC50 (µg/mL)
State just the number; it will be interpreted in µg/mL.

>  <BINDER>
MPV414 (antibody, V domains shown) VH: QVQLVQSGPEVKKPGSSVMVSCKTSGGNFNNFAISWVRQAPGQGLEWMGGIVPIFGTANYAQKSQDRVTITADPSSSTAYLQLSSLTSDDTAIYYCARDLGRSSNYYYYSVFESWGQGTLVTVSS VL: DIVMTQSPATLSLSPGERATLSCRASQSVGDKLAWYQQKPGQAPRLLIYGASTRATDIPARFSGSGSGTEFTLTVSSLQPEDFAVYYCQQYENWPPITFGQGTRLEIK

>  <RESULT_NUMBER>
0.034

$$$$

Lab note: MPV482 (antibody, V domains shown) VH: EVQLVQSGGGVVQPGRSLRLSCAASGFTFSSFAMHWVRQAPGKGLEWVALISDDGNNKYHADSVKGRFTISRDSSKNTLYLQMNSLRGEDTAVYYCARDGSVVGAAAHCDHWGQGTLVTVSS VL: SYELTQPPSVSVSPGQTARITCSGDALPNQCAYWYQQKPGLAPVLLIYKDKERPSGIPERFSGSISGTTVTLTISGVQAEDEADYYCQSSDSSSTVVFGGGTKLTVL gave EC50 of 0.072

Lab note: MPV483 (antibody, V domains shown) VH: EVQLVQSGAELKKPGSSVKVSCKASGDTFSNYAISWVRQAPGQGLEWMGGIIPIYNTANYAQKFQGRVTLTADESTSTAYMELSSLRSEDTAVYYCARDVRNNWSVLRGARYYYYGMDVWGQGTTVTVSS VL: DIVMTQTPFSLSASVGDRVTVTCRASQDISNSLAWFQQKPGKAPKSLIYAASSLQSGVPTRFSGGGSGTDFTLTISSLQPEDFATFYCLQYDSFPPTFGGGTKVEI gave EC50 of 0.12

Lab note: MPV477 (antibody, V domains shown) VH: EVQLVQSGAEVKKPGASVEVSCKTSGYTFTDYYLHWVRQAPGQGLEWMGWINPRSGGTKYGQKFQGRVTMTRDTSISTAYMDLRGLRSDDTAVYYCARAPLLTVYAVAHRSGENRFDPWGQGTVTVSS VL: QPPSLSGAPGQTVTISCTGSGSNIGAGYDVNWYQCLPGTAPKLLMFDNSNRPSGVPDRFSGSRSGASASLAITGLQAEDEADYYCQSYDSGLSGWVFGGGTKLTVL gave EC50 of 0.02

Lab note: MPV485 (antibody, V domains shown) V domain 1: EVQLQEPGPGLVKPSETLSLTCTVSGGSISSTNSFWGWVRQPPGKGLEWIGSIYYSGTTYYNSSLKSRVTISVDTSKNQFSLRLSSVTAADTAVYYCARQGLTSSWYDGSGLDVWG V domain 2: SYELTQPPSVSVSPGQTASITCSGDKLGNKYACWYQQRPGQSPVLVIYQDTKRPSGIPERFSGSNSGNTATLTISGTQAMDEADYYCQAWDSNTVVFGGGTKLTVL gave EC50 of 0.078

Sourced from patent US20250188153A1
